- assaySystem: sigma 1 binding site (Cavia porcellus, UniProt Q60492)
- Sequence (Q60492 whole entry): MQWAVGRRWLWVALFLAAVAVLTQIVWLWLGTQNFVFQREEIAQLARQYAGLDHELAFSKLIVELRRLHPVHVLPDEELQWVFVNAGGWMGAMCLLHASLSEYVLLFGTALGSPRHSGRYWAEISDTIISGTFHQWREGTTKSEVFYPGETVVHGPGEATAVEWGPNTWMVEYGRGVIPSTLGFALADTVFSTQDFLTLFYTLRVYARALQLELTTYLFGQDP
- protocolSummary: biochemical
Structures can show the parent of a compound that is named as a salt.
observationType: pKi
// pKi: -log10(molar conc.)

O=S1(=O)c2cc(Cl)ccc2Oc2ccccc2N1CC1CCN(CC(O)c2ccc(C(F)(F)F)cc2)CC1 (racemic) [Example 18, hydrochloride]: 5.96
CN1c2ccccc2N(CC2CCN(CC(O)c3ccc(F)cc3)CC2)S(=O)(=O)c2ccccc21 (racemic) [Example 7, hydrochloride]: 6.27

Please look up its pKi: O=S1(=O)c2cc(Cl)ccc2Oc2ccccc2N1CC1CCN(CC(O)c2ccc(OC(F)(F)F)cc2)CC1 (racemic) [Example 19, hydrochloride]
5.92

Can you check CN(CCCCN1c2ccccc2Oc2ccc(Cl)cc2S1(=O)=O)CC(O)C12CC3CC(CC(C3)C1)C2 (racemic) [Example 23, hydrochloride] next?
5.80

Can you check O=C(CN1CCC(CN2c3ccccc3Nc3ccccc3S2(=O)=O)CC1)C12CC3CC(CC(C3)C1)C2 [Example 1] next?
6.82

Can you check Cc1ccc(C(O)CN2CCC(CN3c4ccccc4Oc4ccccc4S3(=O)=O)CC2)cc1 (racemic) [Example 13, hydrochloride] next?
7.05

Hey, just so you know, these numbers are from patent EP0881220A1.
